Protocol details: NCI Yeast Anticancer Drug Screen. Data for the sgs1 mgt1 strain (AID 161);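 further: 0% = growth of cultures given vehicle only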
Measurement conditions: S. cerevisiae sgs1 mgt1 strain, at 50.0 µM (retest, dose inferred, filed as 5.0), active compounds read high
This is part of a sample that, as a whole, favours compounds with a hit. Of some 79,000 tested, about 15% had one in any assay.
Reported metric: growth inhibition (%)
Just the number please, in %, no unit attached.

The cases that follow already have their growth inhibition on record.
Molecule: OC(OC/C(I)=C(/I)COC(O)C(Cl)(Cl)Cl)C(Cl)(Cl)Cl (stereo not drawn)
Val: 86
--
Molecule: CN(C)CCN(C)CCC(=O)/C=C/c1ccccc1
Val: 99

Continue with the next molecule.
Q: Which growth inhibition is reported for this molecule? CC12CCC(O)CC1=CCC1C2CCC2(C)C(NC(=O)C(Cc3ccc(O)cc3)NC(=O)OCc3ccccc3)CCC12 (stereo not drawn)
A: 96
